// data source = PubChem BioAssay AID651650

Target: Neuropilin-1 (Homo sapiens) (UniProt O14786)
Sequence (O14786 whole entry, looked up): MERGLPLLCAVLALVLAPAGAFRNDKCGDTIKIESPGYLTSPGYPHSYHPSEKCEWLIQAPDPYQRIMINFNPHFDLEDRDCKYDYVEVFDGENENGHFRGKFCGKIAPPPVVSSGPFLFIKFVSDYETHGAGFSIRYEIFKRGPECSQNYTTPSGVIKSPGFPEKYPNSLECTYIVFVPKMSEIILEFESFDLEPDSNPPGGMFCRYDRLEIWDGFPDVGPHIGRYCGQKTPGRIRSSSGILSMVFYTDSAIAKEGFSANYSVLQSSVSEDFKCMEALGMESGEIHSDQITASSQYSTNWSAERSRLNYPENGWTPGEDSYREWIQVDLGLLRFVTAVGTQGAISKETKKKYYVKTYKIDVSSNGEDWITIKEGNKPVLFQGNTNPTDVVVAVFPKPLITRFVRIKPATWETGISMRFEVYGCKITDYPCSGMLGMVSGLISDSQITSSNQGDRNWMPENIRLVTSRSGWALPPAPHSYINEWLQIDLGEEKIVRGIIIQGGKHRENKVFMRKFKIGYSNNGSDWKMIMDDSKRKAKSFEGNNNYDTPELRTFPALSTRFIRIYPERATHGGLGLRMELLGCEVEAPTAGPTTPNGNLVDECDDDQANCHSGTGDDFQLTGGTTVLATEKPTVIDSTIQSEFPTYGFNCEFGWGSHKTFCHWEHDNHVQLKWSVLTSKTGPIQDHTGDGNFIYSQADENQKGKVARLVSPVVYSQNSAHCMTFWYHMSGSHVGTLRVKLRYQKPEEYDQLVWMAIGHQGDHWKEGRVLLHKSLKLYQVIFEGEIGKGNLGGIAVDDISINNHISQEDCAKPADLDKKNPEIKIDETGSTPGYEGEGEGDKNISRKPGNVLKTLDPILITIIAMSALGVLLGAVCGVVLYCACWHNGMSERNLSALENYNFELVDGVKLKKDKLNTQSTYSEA
Experiment: blockers of CendR peptide binding to NRP-1 – biochemical, FP and AlphaScreen panel, dose response (AID 651650)
Conditions: NRP-1 b1b2 / RPARPAR peptide binding, FP or AlphaScreen; run 1, at 100 µM (top of the series)
# inhibition annotations
Give the figure together with its unit, number first.

// known answers, use as guide
- MOLECULE: "CCCCCCCN1C(Nc2ccccc2)=NC[C@@H]1Cc1ccccc1"
  inhibition: "24.7%"
- MOLECULE: "OCCC1CCCCN1CC(O)COCc1ccc(Cl)cc1 (stereo not drawn)"
  inhibition: "22.3%"
- MOLECULE: "Cc1cc2cc(CNC(=O)c3ccco3)ccc2n1C"
  inhibition: "40.6%"

Query CCOc1ccccc1C1CC(=O)NC2=C1C(=O)CC(C)(C)C2 (stereo not drawn) yields inhibition of 32%

Query CCC1CCCCN1CCCNC(=O)C1CCCN(S(=O)(=O)N2CC(C)CC(C)C2)C1 (stereo not drawn) yields inhibition of 60.7%

* * *

Molecular target: Neuropilin-1 (Homo sapiens)
Experiment: blockers of CendR peptide binding to NRP-1 – biochemical, FP and AlphaScreen panel, dose response (AID 651650)
Settings: NRP-1 b1b2 / RPARPAR peptide binding, FP or AlphaScreen; run 1, at 100 µM (top of the series)
Classification field: enter TRUE for inhibition values not below 40%, FALSE for values below it.

Some solved entries appear below for comparison.
- COMPOUND: "O=[N+]([O-])c1ccc(-n2nnnc2CN2CCCCC2)cc1"
  TARGET_OF_ASSAY: "Neuropilin-1 (Homo sapiens)"
  LABEL: "FALSE"
- COMPOUND: "COc1cccc(NC(=O)CSc2nc(O)c(C)c(=O)n2-c2ccc(C)cc2)c1"
  TARGET_OF_ASSAY: "Neuropilin-1 (Homo sapiens)"
  LABEL: "TRUE"
- COMPOUND: "CNc1nc(-c2ccc3c(c2)CCN3C(=O)c2ccccc2F)cs1"
  TARGET_OF_ASSAY: "Neuropilin-1 (Homo sapiens)"
  LABEL: "FALSE"

Req: Could you verify whether the entry COc1ccc(NC(=O)CN2CCN(c3c(C)cc(C)cc3C)CC2)cc1 shows inhibition of no less than 40%?
Resp: FALSE

Req: Could you verify whether the entry CCCCc1ccc(S(=O)(=O)N2CCC3(CC2)OCCO3)cc1 shows inhibition of no less than 40%?
Resp: FALSE

Req: Could you verify whether the entry CC(C)(C)C(=O)COC(=O)c1cc(-c2ccncc2)nc2ccccc12 shows inhibition of no less than 40%?
Resp: FALSE

Req: Could you verify whether the entry NC(=O)c1c(NC(=O)C(=O)N2CCOCC2)sc2c1CCCC2 shows inhibition of no less than 40%?
Resp: FALSE

Req: Could you verify whether the entry C/C(=N\NC(=O)c1cc(O)ccc1O)c1cccc(NC(=O)c2cccc(Cl)c2)c1 shows inhibition of no less than 40%?
Resp: FALSE

* * *

# inhibition annotations
Target: Neuropilin-1 (Homo sapiens) (UniProt O14786)
Assay: blockers of CendR peptide binding to NRP-1 – biochemical, FP and AlphaScreen panel, dose response (AID 651650)
Conditions: NRP-1 b1b2 / RPARPAR peptide binding, FP or AlphaScreen; run 1, at 100 µM (top of the series)
Response body: numeric value in %, unit text excluded.

// known answers, use as guide
- COMPOUND: "Cc1ccc(NNS(=O)(=O)c2ccc(C)cc2)cc1"
  UNIT_SYMBOL: "%"
  inhibition: 16.2
- COMPOUND: "COc1ccc(N=C2C(=Nc3ccc(OC)cc3)N(c3ccc(N(C)C)cc3)C(=S)N2c2ccc(OC)cc2)cc1"
  UNIT_SYMBOL: "%"
  inhibition: 50.6
- COMPOUND: "CCOC(=O)N1CCN(C(=O)Nc2ccc3nc(C)c(C)nc3c2)CC1"
  UNIT_SYMBOL: "%"
  inhibition: -6.06
- COMPOUND: "C#CCCOC(=O)N1C2=NC(C(=O)OC)=C(C(=O)OC)[C@@H]3N(C)c4ccccc4[C@]23C[C@H]1CO"
  UNIT_SYMBOL: "%"
  inhibition: 74.8
- COMPOUND: "Cc1ccc(C(=O)OCC(=O)c2ccc(Cl)s2)s1"
  UNIT_SYMBOL: "%"
  inhibition: 32
- COMPOUND: "CC(Oc1ccccc1)C(=O)NC1=NCCS1 (stereo not given)"
  UNIT_SYMBOL: "%"
  inhibition: 51.9
- COMPOUND: "Cc1ccc(N(C(=O)c2ccc(CN3CCOCC3)o2)C(C(=O)NCCC(C)C)c2cccs2)c(C)c1 (stereo not given)"
  UNIT_SYMBOL: "%"
  inhibition: 16
- COMPOUND: "CCOC(=O)N1CCN(C(=O)c2cc3n(n2)C(C(F)(F)F)CC(c2ccc4c(c2)OCO4)N3)CC1 (stereo not given)"
  UNIT_SYMBOL: "%"
  inhibition: 30.7
- COMPOUND: "CCOc1ccc(S(=O)(=O)NNC(=O)c2cc3ccccc3o2)cc1"
  UNIT_SYMBOL: "%"
  inhibition: 1.91

Query COc1ccc(C(O)c2nc(-c3ccc4ccccc4c3)cs2)cc1 (stereo not given) yields inhibition of 26.1

* * *

Target: Neuropilin-1 (Homo sapiens) (UniProt O14786)
Test: blockers of CendR peptide binding to NRP-1 – biochemical, FP and AlphaScreen panel, dose response (AID 651650)
Details: NRP-1 b1b2 / RPARPAR peptide binding, FP or AlphaScreen; run 1, at 100 µM (top of the series)
Classification field: enter rule met for inhibition values not below 30%, rule not met for values below it.

Req: Could you verify whether the entry CN(C)/C=C/c1c([N+](=O)[O-])c2ccc(O)cc2n1-c1ccccc1 shows inhibition of no less than 30%?
Resp: rule met

Req: Could you verify whether the entry O=C(NCCN1CCN(C(=O)c2cccc(OC(F)F)c2)CC1)c1cccc(OC(F)F)c1 shows inhibition of no less than 30%?
Resp: rule not met

Req: Could you verify whether the entry COc1ccc(-c2csc(Nc3cccnc3)n2)cc1 shows inhibition of no less than 30%?
Resp: rule met

Req: Could you verify whether the entry NC(=O)C(c1ccc(Cl)cc1Cl)c1ncc(C(F)(F)F)cc1Cl (configuration not stated) shows inhibition of no less than 30%?
Resp: rule met

Req: Could you verify whether the entry CCN(CCCNC(=O)CNC(=O)c1nn(-c2ccc(OC)cc2OC)c(=O)c2ccccc12)c1cccc(C)c1 shows inhibition of no less than 30%?
Resp: rule not met

Req: Could you verify whether the entry O=Cc1ccc(-c2ccccc2C(=O)O)o1 shows inhibition of no less than 30%?
Resp: rule met

Req: Could you verify whether the entry O=C(NCCN1CCOCC1)c1cc(-c2ccc(F)cc2)on1 shows inhibition of no less than 30%?
Resp: rule not met

Req: Could you verify whether the entry O=c1c2cn[nH]c2nc(SCc2ccccc2F)n1-c1ccc(Br)cc1 shows inhibition of no less than 30%?
Resp: rule met

* * *

Target: Neuropilin-1 (Homo sapiens) (UniProt O14786)
Test: blockers of CendR peptide binding to NRP-1 – biochemical, FP and AlphaScreen panel, dose response (AID 651650)
Conditions: NRP-1 b1b2 / RPARPAR peptide binding, FP or AlphaScreen; run 1, at 100 µM (top of the series)
# inhibition annotations
Response body: numeric value in %, unit text excluded.

- COMPOUND: "COc1ccc2c(c1)N(C)/C(=C1/SC(=NCc3ccccc3)N(c3ccccc3)C1=O)S2"
  inhibition, %: 36.5
- COMPOUND: "Cc1cccc(N(CC(=O)NC2CCCC2)C(=O)CS(=O)CC(=O)Nc2ccc3c(c2)OCO3)c1C (stereo unspecified)"
  inhibition, %: 49
- COMPOUND: "Cc1ccc(NC(=S)Nc2cccc3ccccc23)cc1"
  inhibition, %: 13.4

Query CCCCCc1c(-c2cccc(Cl)c2)ncn1CCc1ccccc1OC yields inhibition of 51.8

Query CCOC(=O)c1ccc(N2CCN(C(=O)c3ccccc3)CC2)c(NC(=O)c2ccco2)c1 yields inhibition of 40.4

* * *

# inhibition annotations
Biological target: Neuropilin-1 (Homo sapiens) (UniProt O14786)
Assay: blockers of CendR peptide binding to NRP-1 – biochemical, FP and AlphaScreen panel, dose response (AID 651650)
Conditions: NRP-1 b1b2 / RPARPAR peptide binding, FP or AlphaScreen; run 1, at 100 µM (top of the series)
Give the figure together with its unit, number first.

- SMILES_STR: "Oc1ccccc1-c1ccn[nH]1"
  READOUT_TYPE: "inhibition"
  TEST_RESULT: "32%"
- SMILES_STR: "CCOC(=O)CNc1ccc2c(c1)OCO2"
  READOUT_TYPE: "inhibition"
  TEST_RESULT: "82.2%"
- SMILES_STR: "CCOC(=O)C[C@H]1c2cc(C(F)(F)F)ccc2S(=O)(=O)N1Cc1ccccc1"
  READOUT_TYPE: "inhibition"
  TEST_RESULT: "59.5%"
- SMILES_STR: "CC(C)C[C@@H](COc1ccccc1)N1CCN(CCc2ccccc2)CCC1=O"
  READOUT_TYPE: "inhibition"
  TEST_RESULT: "46.6%"
- SMILES_STR: "Cn1c(=O)c2[nH]c(NCCCN3CCOCC3)nc2n(C)c1=O"
  READOUT_TYPE: "inhibition"
  TEST_RESULT: "44.2%"

Query Cc1ccc(NC=C(S(=O)(=O)c2ccccc2)S(=O)(=O)c2ccccc2)cc1 yields inhibition of -22.8%

Query CCN1C(=O)C(=O)c2cc(C)ccc21 yields inhibition of 13.5%

Query O=C(/C=C/c1ccccc1)c1ccccn1 yields inhibition of -2%

Query O=C1c2cc([N+](=O)[O-])cc3cc([N+](=O)[O-])cc(c23)C(=O)N1c1ccccn1 yields inhibition of 17.2%

Query O=C(NNC(=O)c1csc(N2CCOCC2)n1)c1ccc(=O)[nH]c1 yields inhibition of 39.8%

Query Cc1cnc(C(=O)OCC(=O)Nc2sc3c(c2C#N)CCC3)cn1 yields inhibition of 44.2%
